Target: T1, CRBN, Q96SW2;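 also: pooled lentiviral library of zinc finger degron-EGFP fusions in mCherry-positive Jurkat cells, FACS-sorted after compound exposure, with degron abundance counted by next-generation sequencing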
T1 chain: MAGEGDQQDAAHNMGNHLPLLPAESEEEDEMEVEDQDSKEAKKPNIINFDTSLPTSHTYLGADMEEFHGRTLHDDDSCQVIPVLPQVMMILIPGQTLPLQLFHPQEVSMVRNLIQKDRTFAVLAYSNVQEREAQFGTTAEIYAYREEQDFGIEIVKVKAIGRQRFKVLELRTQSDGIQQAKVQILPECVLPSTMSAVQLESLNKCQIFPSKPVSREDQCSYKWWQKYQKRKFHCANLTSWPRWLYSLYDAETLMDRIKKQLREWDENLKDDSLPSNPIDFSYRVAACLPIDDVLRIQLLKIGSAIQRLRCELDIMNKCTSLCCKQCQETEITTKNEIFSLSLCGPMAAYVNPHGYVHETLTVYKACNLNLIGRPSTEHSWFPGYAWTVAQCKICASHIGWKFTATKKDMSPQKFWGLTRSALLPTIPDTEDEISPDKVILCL
Assay: log2 fold change of degron read counts, EGFP-low vs EGFP+ sorted cells (limma voom), compound-induced degradation; higher = more compound-induced degradation of the degron-EGFP fusion; degrons are variants of IKZF1/3 zinc finger 2; compound dose not given here
Details: Jurkat; 18 h; compound: compound 33 (diphenyl IMiD analogue)
Over roughly 8,300 sequences, “log2 fold change of degron read counts, EGFP-low vs EGFP+ sorted cells (limma voom), compound-induced degradation” has its median near -1.1; the highest 2% begin near 3.2. The list comes from a sample in which the highest values are over-represented; it also holds close analogues and randomly drawn sequences.
Readout Type: log2 fold change of degron read counts

FHCDQCGACFTQKGNLLRHIKL [46F_47H_49D_50Q_52G_53A_54C_55F_67L_, Q9UKT9]	-2.17
FSCDICGAPFTQKGNLLRHIKL [46F_47S_49D_50I_52G_53A_54P_55F_67L_, Q9UKT9]	0.275
FMCEICGRDFTQKGNLLRHIKL [46F_47M_49E_50I_52G_53R_54D_55F_67L_, Q9UKT9]	-2.1
FTCEICGHIFTQKGNLLRHIKL [46F_47T_49E_50I_52G_53H_54I_55F_67L_, Q9UKT9]	-2.68
FICNVCGACFTQKGNLLRHIKL [46F_47I_49N_50V_52G_53A_54C_55F_67L_, Q9UKT9]	0.594
FECDICGAPFTQKGNLLRHIKL [46F_47E_49D_50I_52G_53A_54P_55F_67L_, Q9UKT9]	-0.0281
FNCDICGAPFTQKGNLLRHIKL [46F_47N_49D_50I_52G_53A_54P_55F_67L_, Q9UKT9]	-0.682
FKCNVCGAEFTQKGNLLRHIKL [46F_47K_49N_50V_52G_53A_54E_55F_67L_, Q9UKT9]	-3.12

Kindly review the next sequence as well.
-- ask For the sequence FMCDICGAPFTQKGNLLRHIKL [46F_47M_49D_50I_52G_53A_54P_55F_67L_, Q9UKT9] , give its reported log2 fold change of degron read counts.
-- reply 3.03

The reported measurements were obtained from the supplement of paper PMC12645437.
